- System: Mycobacterium tuberculosis H37Rv (ATCC27294)
- experimental.protocol: microbe, parasite or virus in culture
- Type: cell-based
- measurement.conditions: Mycobacterium tuberculosis, ATCC27294|H37RV
measurement.name: MIC (µg/mL)
API: value field is a number in µg/mL; no unit string.

Solved cases (2 shown):
CO[C@H]1/C=C/O[C@@]2(C)Oc3c(C)c(O)c4c(O)c(c(/C=N/N5CCN(C)CC5)c(O)c4c3C2=O)NC(=O)/C(C)=C\C=C\[C@H](C)[C@H](O)[C@@H](C)[C@@H](O)[C@@H](C)[C@H](OC(C)=O)[C@@H]1C [Rifampicin, reference compound] : 0.1
O=[N+]([O-])c1ccc(S(=O)(=O)N2CCN(C(c3ccccc3)c3ccccc3)CC2)c([N+](=O)[O-])c1 : 1.56

Problem: // lookup MIC for CC[C@@H](CO)NCCN[C@@H](CC)CO [Ethambutol, reference compound]
Result: 1.56
